- Test system: SF-295 CNS
- Method Description: NCI tumour cell line growth inhibition, 48 h
Observed Property: log10(TGI) (log10 of the value in µM)
Field: value | Transform: log10 | Quantity: TGI | Unit: µM

Solved entries:
Incoming: Return log10(TGI) (reported value) for this molecule: `CN(C)CCCNc1ccc2nnn3c4ccc(OC(=O)c5ccccc5)cc4c(=O)c1c23`
Outgoing: 1.39

Incoming: Return log10(TGI) (reported value) for this molecule: `COC(=O)CCC(=O)N1C/C(=C\c2ccccc2)C(=O)/C(=C/c2ccccc2)C1`
Outgoing: 0.77

Record log10(TGI) for all entries; do not skip any.
1. CCC1C(C)C=NN1c1nc(N)nc(C(C#N)=Nc2ccc(N(C)C)cc2)n1 (centres undefined)
2. Cc1cccc(NC(=O)O/N=C(\Cl)C(C)C)c1
3. Clc1ccc(C2CC(c3cccc(Nc4ccncc4)c3)=NN2c2ccc(Cl)cc2)cc1 (centres undefined)

Outgoing:
1.21
1.51
0.47

---

- Test system: SNB-19 CNS
- Method Description: NCI tumour cell line growth inhibition, 48 h
Observed Property: TGI

Solved entries:
Incoming: Return TGI (reported value) for this compound: `Cc1cccc(C)c1NC(=O)CCc1nnc2s/c(=C\c3ccc(N(C)C)cc3)c(=O)n12`
Outgoing: > 100 µM

Incoming: Return TGI (reported value) for this compound: `[N-]=[N+]=NCCCn1c2c(c3ccc([N+](=O)[O-])cc3c1=O)C(=O)c1cc3c(cc1-2)OCO3`
Outgoing: > 100 µM

Incoming: Return TGI (reported value) for this compound: `O=C(O)Cc1ccc(Nc2nc3ccccc3nc2C(=O)O)cc1`
Outgoing: > 100 µM

Record TGI for all entries; do not skip any.
1. O=C1CNC(=O)/C(=C/c2c[nH]c3ccccc23)N1
2. COc1ccc(C(=O)O[C@H]2CC[C@@]3(C)[C@@H]4CC[C@H]5[C@]6(O)C[C@H](O)[C@@]7(O)[C@@H](CN8C[C@@H](C)CC[C@H]8[C@@]7(C)O)[C@]6(O)C[C@@]53OC24O)cc1OC
3. CC(=O)c1c(SCCN2CCOCC2)n(-c2ccccc2)c(=S)n(-c2ccccc2)c1=O

Outgoing:
1: > 100 µM; 2: > 100 µM; 3: > 55.2 µM

---

Give TGI for every item shown.
- Tested on: OVCAR-4 ovarian
- Method Description: NCI tumour cell line growth inhibition, 48 h

Solved entries:
Incoming: Return TGI (reported value) for this compound: `[N-]=[N+]=NCCCn1c2c(c3ccc([N+](=O)[O-])cc3c1=O)C(=O)c1cc3c(cc1-2)OCO3`
Outgoing: > 100 µM

Incoming: Return TGI (reported value) for this compound: `N#Cc1cnc2cc(OC[C@@H](O)CO)c(NC(=O)C3CCCC3)cc2c1Nc1ccc(OCc2cccc(F)c2)c(Cl)c1`
Outgoing: 1.28 µM

Incoming: Return TGI (reported value) for this compound: `N#CCCN(CCC#N)c1ccc(C(N=Nc2ccc(Cl)cc2)=Nc2ccccc2)cc1`
Outgoing: 26 µM

Incoming: Return TGI (reported value) for this compound: `O=S(=O)(O)c1cc(S(=O)(=O)O)c2cc(N=Nc3c(O)ccc4ccccc34)ccc2c1`
Outgoing: > 100 µM

Incoming: Return TGI (reported value) for this compound: `O=C1Nc2cc(-c3cccc(O)c3)ccc2/C1=C/c1ccc[nH]1`
Outgoing: 16.2 µM

Incoming: Return TGI (reported value) for this compound: Cn1c2c(c3ccccc31)CCN=C2C1CCCOC1=O (stereo not drawn)
Outgoing: > 100 µM

Incoming: Return TGI (reported value) for this compound: `OC(c1ccc(Cl)cc1)(c1ccc(Cl)cc1)c1cncnc1`
Outgoing: 41.5 µM

Incoming: Return TGI (reported value) for this compound: `Cc1cc(S(=O)(=O)Nc2nnc3c4ccccc4cnn23)c(S)cc1Cl`
Outgoing: > 100 µM

Record TGI for all entries; do not skip any.
1. CCOC(=O)C(=O)Nc1cc(Cl)c(Cl)cc1Cl
2. C/C(=N\NC(N)=S)c1ccc(C)c(C)c1
3. O=C(c1ccco1)N(C(=S)N1CCN(c2ccccc2)CC1)C1CCCCC1
4. CC(C)(C)OP(=O)(OC(C)(C)C)C(O)c1ccc(/C=C(\C#N)C(N)=O)cc1 (stereo not drawn)
5. Cc1c2n(c3ccccc13)S(=O)(=O)c1ccccc1-2
6. Cc1c(O)c(OC2OC(CO)C(O)C(O)C2O)cc2c1C=C[C@@H]1[C@@]2(C)C(=O)C[C@]2(C)[C@@H]([C@@](C)(O)C(O)/C=C/C(C)(C)O)[C@H](O)C[C@@]12C (stereo partly drawn)
7. O=C(O)C1OC1C(=O)O (stereo not drawn)
8. NCCCOc1cc2ccccc2cc1C(=O)Nc1ccc(Cl)cc1OC(=O)c1cc2ccccc2cc1OCCCN

Outgoing:
1. > 100 µM
2. > 100 µM
3. > 100 µM
4. > 100 µM
5. > 100 µM
6. > 100 µM
7. > 100 µM
8. 0.306 µM

Record TGI for all entries; do not skip any.
1. COC(=O)CCC1=NCC(C)(C)O1
2. CN(C)CCCNc1ccc2nnn3c4ccc(OC(=O)c5ccccc5)cc4c(=O)c1c23

Outgoing:
1: > 10 µM; 2: 11.7 µM
